Target: T1, MPDZ_12, O75970
T1 sequence (O75970 1857-1958, limits assumed, looked up): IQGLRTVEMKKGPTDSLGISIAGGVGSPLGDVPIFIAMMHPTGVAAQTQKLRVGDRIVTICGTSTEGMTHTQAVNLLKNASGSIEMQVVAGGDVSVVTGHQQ
Test: holdup assay
Parameters: key: below the threshold = too weak to quantify, mostly under pKd 3.1 to 4
Conditions: plain residues with an end cap or a label only (N-terminal biotin on a linker: ado-ado)
quantity.kind: pKd

> print(dat)
                              binder               result
1  KSRVAFFEEL [NF2, P35240;P35240-1]  below the threshold
2          DFLSTFHIRI [CIB2, O75838]  below the threshold
3           PYPTADHMLA [JUP, P14923]  below the threshold
4         GTGYDRKDYV [CLDN3, O15551]  below the threshold
5         VLYPREGTEV [FOXI1, Q12951]  below the threshold
6       PTPDLPQTRV [KLHDC7A, Q5VTJ3]  below the threshold

// query Please report the recorded pKd for QRPYRRGSEI [KCNJ18, B7U540] .
// result 3.56

// query Fill in: pKd of GEDRSPPTAL [MKNK1, Q9BUB5] is ___
// result below the threshold

// query Requested read-out: pKd. Entry: NVYGIESVKI [GRIA2, P42262]
// result 3.61

# credit: paper PMC9482650
